- Test system: TK-10 renal
- PROCEDURE SUMMARY: NCI-60 one-dose screen, 48 h (100 = growth as untreated, 0 = no growth, -100 = all killed)
- ASSAY SETUP: 10 µM unless noted
Compounds without any hit were thinned out: in the full panel of roughly 83,000, 20% have a hit.
ASSAY READOUT: growth (%)
Provide the reading as a plain figure in %.

# MOLECULE, ASSAY READOUT, ASSAY VALUE
records = [
    ("N#Cc1nc2c(S(=O)(=O)c3ccc(Cl)cc3)c(N)n(Nc3cccc(Cl)c3)c2nc1C#N", "growth", 36.3),
    ("N=C1CCC(=N)c2c1c(O)c1ccccc1c2O", "growth", 127),
    ("CC(CCc1ccc(Cl)c(Cl)c1)NCc1ccc(C(C)(C)C)cc1 (stereo unspecified)", "growth", 78.4),
    ("CCN1CCN(c2nc(C)cc(NCc3cc(Nc4ccnc5cc(Cl)ccc45)ccc3F)n2)CC1", "growth", 28.9),
    ("NC(=O)c1ccc[n+]([C@@H]2O[C@H](COP(=O)([O-])OP(=O)(O)OC[C@H]3O[C@@H](n4cnc5c(N)ncnc54)[C@H](O)[C@@H]3O)[C@@H](O)[C@H]2O)c1", "growth", 120),
]

Below: the item to evaluate.
Lab note: measured growth of COc1cc(C2CC(c3cc(OC)c(OCCCOc4ccc(-n5c(/C=C/c6ccccc6)nc6ccccc6c5=O)cc4)c(OC)c3)=NO2)cc(OC)c1OC (stereo unspecified) was 139
